- Test system: UO-31 renal
- MEASUREMENT DESCRIPTION: NCI-60 one-dose screen, 48 h (100 = growth as untreated, 0 = no growth, -100 = all killed)
- EXPERIMENTAL SETUP: 10 µM unless noted
This is part of a sample that, as a whole, favours compounds with a hit. Of some 83,000 tested, about 20% had one in any assay.
Documented growth across a set of compounds

| COMPOUND | growth, % |
| --- | --- |
| C[C@@H]1CC[C@H]2[C@@H](C)C(O)O[C@@H]3O[C@]4(C)CC[C@@H]1[C@]32OO4 (stereo partly specified) | 1.61 |
| CCN(CC)CCNc1ccc(Cl)cc1Cl | 87.3 |
| S=C(Nc1ccc(C2=NCCN2)cc1)Nc1ccc(C2=NCCN2)cc1 | 83.4 |
| CCC(C)CC(C)C(=O)c1c(O)ccn(OC)c1=O (stereo unspecified) | 58.3 |
| NNC(=O)C1CC2c3ccccc3C1c1ccccc12 (stereo unspecified) | 93.8 |
| C/C(=C\CCc1ccsc1)CC/C=C(\C)CCCN1CCN(CCO)CC1 | 62.1 |
| c1coc([C@@H]2C[C@@H]3Cc4ccc5ccccc5c4N2O3)c1 | 75 |
| Oc1ccc(-c2nn(-c3ccccc3)cc2-c2nc3ccccc3s2)cc1 | 55.4 |
| O=C(Nc1ccc(Cl)cc1)c1cc2c(cc1O)[nH]c1ccccc12 | 39.9 |
| Cc1cc(NCCCNc2ccnc3cc(Cl)ccc23)nc(N2CCN(C)CC2)n1 | 58.6 |
| COc1ccc(-c2csc(NC(=O)c3cc(OC)c(OC)c(OC)c3)n2)cc1 | 89.3 |
| CCCn1cnc2c1c(=O)n(CCCCC(C)=O)c(=O)n2C | 80.9 |
| COc1ccc(Cn2c(NCCCN(C)C)nc(=O)n(Cc3ccc(F)cc3)c2=O)cc1 | 63.6 |
| COc1cc(C2NC(c3ccc(Cl)cc3)C(C)/C(=N/NC(N)=S)C2C)cc(OC)c1OC (stereo unspecified) | 76.7 |
| CCN(CC)c1ccc(C(O)C2=CC(=O)c3ccccc3C2=O)cc1 (stereo unspecified) | 22.7 |
| COc1ccc2nc3cc(Cl)ccc3c(Nc3cc(C(C)C)c(O)cc3C)c2c1 | -6.15 |
| Nc1ccc2c(c1)/C(=N/O)c1cc([N+](=O)[O-])ccc1-2 | 21.7 |
| Cc1c(C(N)=O)sc2c1C(=O)N(Cc1ccccc1)C1=NN=C(c3ccc(Cl)cc3)CN12 | 26.3 |
| COC(=O)[C@]12CC[C@@H](C)[C@H](C)[C@@H]1C1=CC[C@@H]3[C@@]4(C)C=C(O)C(=O)[C@@]5(C)COC(=C54)C[C@@]3(C)[C@]1(C)CC2 | -50.2 |
| CCN(CC)CCOc1ccc(C2=C(c3ccccc3)CCc3cc(OC)ccc32)cc1 | -76.7 |
| O=C1NCN(CCO)CN1 | 97.2 |

Data origin: PubChem BioAssay (NCI)
